Target: T1, N-HisPurβ (Purine-rich element binding protein B) (UniProt O35295 1-324)
T1 sequence: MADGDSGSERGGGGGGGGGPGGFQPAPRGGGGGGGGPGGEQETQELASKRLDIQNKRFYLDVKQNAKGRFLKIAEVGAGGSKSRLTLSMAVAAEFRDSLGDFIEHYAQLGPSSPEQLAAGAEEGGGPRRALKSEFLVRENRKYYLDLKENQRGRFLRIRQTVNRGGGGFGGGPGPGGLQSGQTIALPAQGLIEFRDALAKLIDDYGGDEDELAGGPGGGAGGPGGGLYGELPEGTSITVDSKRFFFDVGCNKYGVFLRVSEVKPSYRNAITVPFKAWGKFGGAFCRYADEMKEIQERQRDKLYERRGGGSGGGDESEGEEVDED
Assay: EMSA
pKd: −log10 of the molar value.
Recorded Metric: pKd

Fill blank: measured pKd of the binder GGGAGCAGAACAGAGGAATGCAGTGGAAGAGA (ssDNA) [PE32-F (PE32-F*, PE32-bF, PE32-F-3FLC)] is ____. ~9.52
